Biological target: ZCCHC9 (UniProt Q8N567)
Sequence (Q8N567 whole entry, looked up): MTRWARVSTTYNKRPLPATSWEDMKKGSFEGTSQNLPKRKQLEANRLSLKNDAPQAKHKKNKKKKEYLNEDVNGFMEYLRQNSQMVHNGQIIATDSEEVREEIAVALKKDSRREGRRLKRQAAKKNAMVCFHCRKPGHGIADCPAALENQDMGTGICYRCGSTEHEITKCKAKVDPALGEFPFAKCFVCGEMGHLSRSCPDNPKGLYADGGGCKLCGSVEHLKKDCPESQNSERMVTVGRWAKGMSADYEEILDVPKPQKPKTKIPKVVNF
Experiment: log2 fold change, soluble protein after heating vs DMSO (PISA); higher = thermal stabilisation; K562 cells, 10 uM, 30 min; active = over 0.2 and 3.5 SD of the protein, either way, in both replicates (recomputed)
Targets with a hit are over-represented here; the source holds about 7,900 in all. About 0.6% of all pairs of compound and target were hits.
Item-by-item account of log2 fold change
Lab note: jot the number down without any unit.

These recorded examples may help you get a feel for the data.
NC1(c2ccc(-c3nc4ccn5c(=O)[nH]nc5c4cc3-c3ccccc3)cc2)CCC1; 0.218
NC(=O)c1cnc(N[C@@H]2CCCC[C@@H]2N)nc1Nc1cccc(-n2nccn2)c1; 0.049
CC(C)c1cnn2c(NCc3ccccc3)cc(NCCCCCCN)nc12; 0.004

Problem: Entry under review: COc1cc(Nc2ncc3c(n2)-c2ccc(Cl)cc2C(c2c(F)cccc2OC)=NC3)ccc1C(=O)O . Reported log2 fold change?
Solution: -0.083

Problem: Entry under review: CC(C)(O)CC(=O)NCCn1ccc2ncnc(Nc3ccc(Oc4cccc(C(F)(F)F)c4)c(Cl)c3)c21 . Reported log2 fold change?
Solution: 0.166

----------
Molecular target: ZDHHC6 (UniProt Q9H6R6)
Sequence (Q9H6R6 whole entry, looked up): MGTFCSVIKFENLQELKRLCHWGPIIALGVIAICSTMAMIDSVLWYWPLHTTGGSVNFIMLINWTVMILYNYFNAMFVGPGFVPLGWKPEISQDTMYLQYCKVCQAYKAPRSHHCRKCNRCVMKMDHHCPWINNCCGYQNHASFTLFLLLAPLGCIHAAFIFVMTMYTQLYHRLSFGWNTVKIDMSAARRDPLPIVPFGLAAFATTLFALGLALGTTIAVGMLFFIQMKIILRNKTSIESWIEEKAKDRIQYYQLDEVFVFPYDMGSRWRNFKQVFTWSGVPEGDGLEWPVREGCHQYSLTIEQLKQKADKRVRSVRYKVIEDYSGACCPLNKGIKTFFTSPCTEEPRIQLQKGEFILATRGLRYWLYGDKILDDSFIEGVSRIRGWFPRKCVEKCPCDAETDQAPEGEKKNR
Experiment: log2 fold change, soluble protein after heating vs DMSO (PISA); higher = thermal stabilisation; K562 cells, 10 uM, 30 min; active = over 0.2 and 3.5 SD of the protein, either way, in both replicates (recomputed)
Targets with a hit are over-represented here; the source holds about 7,900 in all. About 0.6% of all pairs of compound and target were hits.
Item-by-item account of log2 fold change
Lab note: jot the number down without any unit.

These recorded examples may help you get a feel for the data.
Cc1cc(Nc2cc(CN3CCOCC3)c3nc(C)c(Cc4ccc(Cl)cc4F)n3n2)n[nH]1; -0.018
O=C(CCCCCCNC(=O)c1cnc(N(c2ccccc2)c2ccccc2Cl)nc1)NO; 0.149
CCCS(=O)(=O)Nc1ccc(F)c(C(=O)c2c[nH]c3ncc(Cl)cc23)c1F; -0.048
O=C(CCCCCCC(=O)Nc1ccccc1)NO; -0.108

Problem: Entry under review: CNCc1ccc(-c2[nH]c3cc(F)cc4c3c2CCNC4=O)cc1 . Reported log2 fold change?
Solution: 0.176

Problem: Entry under review: CN1CCC(CNc2ccc3ncc(-c4cccc(OC(F)(F)F)c4)n3n2)CC1 . Reported log2 fold change?
Solution: 0.011

----------
Biological target: ZFPL1 (UniProt O95159)
Sequence (O95159 whole entry, looked up): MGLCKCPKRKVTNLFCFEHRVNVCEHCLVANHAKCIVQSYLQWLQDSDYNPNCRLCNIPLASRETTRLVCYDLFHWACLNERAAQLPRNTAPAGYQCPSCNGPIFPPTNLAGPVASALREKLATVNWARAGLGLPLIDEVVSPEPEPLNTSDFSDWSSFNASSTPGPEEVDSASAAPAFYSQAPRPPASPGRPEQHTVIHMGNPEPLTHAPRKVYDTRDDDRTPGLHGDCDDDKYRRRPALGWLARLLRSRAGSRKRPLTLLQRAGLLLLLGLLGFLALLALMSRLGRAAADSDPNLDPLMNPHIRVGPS
Assay: log2 fold change, soluble protein after heating vs DMSO (PISA); higher = thermal stabilisation; K562 cells, 10 uM, 30 min; active = over 0.2 and 3.5 SD of the protein, either way, in both replicates (recomputed)
Targets with a hit are over-represented here; the source holds about 7,900 in all. About 0.6% of all pairs of compound and target were hits.
Item-by-item account of log2 fold change
Lab note: jot the number down without any unit.

These recorded examples may help you get a feel for the data.
O=C1c2ccccc2-c2n[nH]c3cccc1c23; -0.055
CCCc1cc(C)[nH]c(=O)c1CNC(=O)c1cc(-c2ccnc(N3CCN(C)CC3)c2)cc2c1cnn2C(C)C; -0.05
O=C(CCCCCCC(=O)Nc1ccccc1)NO; -0.053
Cc1ccc(C(=O)N(CCCN)[C@@H](c2nc3cc(Cl)ccc3c(=O)n2Cc2ccccc2)C(C)C)cc1; 0.236
Cn1cncc1[C@@](N)(c1ccc(Cl)cc1)c1ccc2c(c1)c(-c1cccc(Cl)c1)cc(=O)n2C; 0.008

Problem: Entry under review: Fc1ccc(Cl)cc1-c1nc(Nc2ccncc2)c2nccnc2n1 . Reported log2 fold change?
Solution: 0.101

Problem: Entry under review: CCN(CCCOc1ccc2c(Nc3cc(CC(=O)Nc4cccc(F)c4)[nH]n3)ncnc2c1)CCOP(=O)(O)O . Reported log2 fold change?
Solution: -0.032

Problem: Entry under review: CCn1cc(-c2ccnc3[nH]c(-c4cccc(CN(C)C)c4)cc23)c(-c2ccc(NC(=O)N(C)C)cc2)n1 . Reported log2 fold change?
Solution: 0.032

The values you see were collected from the supplement of paper PMC10849652.
